Reported pIC50 is given for each of the following molecules.
Biological target: Macrophage metalloelastase (Homo sapiens)
Sequence (P39900 whole entry, the tested form may be a part): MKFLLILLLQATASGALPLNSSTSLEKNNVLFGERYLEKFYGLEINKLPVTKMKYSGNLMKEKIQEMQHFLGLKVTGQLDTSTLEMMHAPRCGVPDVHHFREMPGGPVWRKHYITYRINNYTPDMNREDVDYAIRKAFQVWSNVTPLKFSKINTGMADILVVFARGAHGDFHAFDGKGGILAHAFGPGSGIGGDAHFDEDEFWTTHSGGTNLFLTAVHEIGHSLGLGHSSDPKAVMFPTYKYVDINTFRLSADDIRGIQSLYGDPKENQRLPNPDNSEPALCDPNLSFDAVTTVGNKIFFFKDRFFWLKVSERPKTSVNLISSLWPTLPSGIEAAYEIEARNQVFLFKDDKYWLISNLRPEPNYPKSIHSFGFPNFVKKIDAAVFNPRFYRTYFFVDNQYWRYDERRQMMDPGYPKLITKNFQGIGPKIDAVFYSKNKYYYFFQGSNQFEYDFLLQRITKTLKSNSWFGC
Assay: Inhibition of recombinant human MMP12 catalytic domain (Gly106 to […] residues) expressed in Escherichia coli BL21 codon plus using Mca-Pro-Leu-Gly-Leu-Dpa-Ala-Arg-NH2 as substrate by fluorescence assay
Square brackets hold non-standard residues; d marks the D form. Peptide text beside a SMILES is read from it. * marks the point of attachment. d(hPhe) = N[C@H](CCc1ccccc1)C(=O)O; Bn = c1ccc(C*)cc1; NHOH = ON*
Interpret pIC50 as the negative base-10 log of the concentration measured in mol/L.

Lab book: pIC50 of CC(=O)N[C@@H](COCc1ccccc1)C(=O)N[C@H](CCc1ccccc1)C(=O)N[C@H](Cc1ccccc1)C(=O)NO (Ac-Ser(Bn)-[d(hPhe)]-[dF]-{NHOH}) noted as 7.26

We next turn to a different molecule, shown below.
Lab book: pIC50 of CNC(=O)[C@H](Cc1c[nH]c2ccccc12)NC(=O)[C@@H](CC(=O)NO)CC(C)C noted as 8.28

* * *

Target: Macrophage metalloelastase (Homo sapiens)
Experiment: Binding affinity to recombinant human MMP12 catalytic domain (Gly106 to […] residues) expressed in Escherichia coli BL21 codon plus by 1D 1H aliphatic NMR spectra analysis
pKd: −log10 of the molar value. Square brackets hold non-standard residues; d marks the D form. Peptide text beside a SMILES is read from it. * marks the point of attachment. d(hPhe) = N[C@H](CCc1ccccc1)C(=O)O; Bn = c1ccc(C*)cc1; NHOH = ON*
MEASURED PROPERTY: pKd

Lab book: pKd of CC(=O)N[C@@H](COCc1ccccc1)C(=O)N[C@H](CCc1ccccc1)C(=O)N[C@H](Cc1ccccc1)C(=O)NO (Ac-Ser(Bn)-[d(hPhe)]-[dF]-{NHOH}) noted as > 7.30

* * *

Molecular target: Macrophage metalloelastase (Homo sapiens)
Test: Binding affinity to recombinant human MMP12 catalytic domain (Gly106 to […] residues) expressed in Escherichia coli BL21 codon plus by 2D [15N,1H] HMQC spectra analysis
Square brackets hold non-standard residues; d marks the D form. Peptide text beside a SMILES is read from it. * marks the point of attachment. d(hPhe) = N[C@H](CCc1ccccc1)C(=O)O; Bn = c1ccc(C*)cc1; NHOH = ON*
MEASURED PROPERTY: Kd

Lab book: Kd of CC(=O)N[C@@H](COCc1ccccc1)C(=O)N[C@H](CCc1ccccc1)C(=O)N[C@H](Cc1ccccc1)C(=O)NO (Ac-Ser(Bn)-[d(hPhe)]-[dF]-{NHOH}) noted as < 50 nM
